Source of measurements: paper PMC5216056

condition.parameters: PAMPA
measured.quantity: Pct acceptor (%)
Give bare numbers, in %.

{"columns": ["compound", "Pct acceptor [%]"],
 "data": [
  ["COc1ccc(C(=O)c2c(C)n(CCN3CCOCC3)c3cc(I)ccc23)cc1", 0.37]
]}

Please supply Pct acceptor for each of the following items, keeping them in order.
1. CCCCCCC(C)(C)c1cc(O)c2c(c1)OC(C)(C)[C@@H]1CC=C(CO)C[C@@H]21
2. Cc1c(C(=O)c2cccc3ccccc23)c2cccc3c2n1[C@H](CN1CCOCC1)CO3
3. CCCCC/C=C\C/C=C\C/C=C\C/C=C\CCCC(=O)NCCO [Anandamide, N-arachidonoylethanolamine]

(A)
1. 0
2. 0.5
3. 1.2

###

experimental.system: hGPR55 (Homo sapiens)
Construct: host or cells: CHO-K1 (PathHunter hGPR55_bgal)
Sequence (Q9Y2T6 whole entry): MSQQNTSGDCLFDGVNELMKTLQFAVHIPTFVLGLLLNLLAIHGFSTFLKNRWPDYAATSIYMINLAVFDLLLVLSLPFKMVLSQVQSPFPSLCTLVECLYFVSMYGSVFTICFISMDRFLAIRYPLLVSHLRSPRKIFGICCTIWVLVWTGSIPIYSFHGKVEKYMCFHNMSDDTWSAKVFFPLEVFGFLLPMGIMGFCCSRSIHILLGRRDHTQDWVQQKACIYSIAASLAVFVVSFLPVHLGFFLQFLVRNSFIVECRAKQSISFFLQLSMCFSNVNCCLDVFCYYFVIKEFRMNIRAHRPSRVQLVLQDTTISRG
test: cell-based
measured.quantity: EC50

(Q) Provide the documented EC50 with hGPR55 (Homo sapiens) as the system for CCCCCCC(C)(C)c1cc(OC)c([C@@H]2C=C(CO)[C@@H]3C[C@H]2C3(C)C)c(OC)c1 [HU308]
(A) > 10 µM

###

experimental.system: hCB1R (Homo sapiens, UniProt P21554)
Construct: host or cells: CHO
Sequence (P21554 whole entry): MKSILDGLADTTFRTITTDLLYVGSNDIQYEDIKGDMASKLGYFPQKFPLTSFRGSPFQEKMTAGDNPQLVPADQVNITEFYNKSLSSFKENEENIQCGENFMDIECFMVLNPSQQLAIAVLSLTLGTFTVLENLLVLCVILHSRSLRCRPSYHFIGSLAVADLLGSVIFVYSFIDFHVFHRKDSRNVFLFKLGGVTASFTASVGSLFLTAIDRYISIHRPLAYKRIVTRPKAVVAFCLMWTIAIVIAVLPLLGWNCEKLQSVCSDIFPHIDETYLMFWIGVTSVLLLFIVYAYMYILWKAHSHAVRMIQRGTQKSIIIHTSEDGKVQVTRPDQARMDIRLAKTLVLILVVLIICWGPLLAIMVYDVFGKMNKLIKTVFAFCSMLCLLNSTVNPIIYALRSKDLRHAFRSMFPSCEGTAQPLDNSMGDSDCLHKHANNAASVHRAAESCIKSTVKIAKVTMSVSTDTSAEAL
test: cell-based
Assay type: cell-based
measured.quantity: pEC50 ± SEM pERK hCB1R

Solved cases (4 shown):
{"columns": ["molecule", "observed.value"],
 "data": [
  ["CN1CCCCC1Cn1cc(C(=O)c2cc([N+](=O)[O-])ccc2I)c2ccccc21 (racemic) [(rac)-AM1241]", "5.07 ± 0.05"],
  ["CN1CCCC[C@H]1Cn1cc(C(=O)c2cc([N+](=O)[O-])ccc2I)c2ccccc21 [(S)-AM1241]", "< 4"],
  ["CCCC(C)(C)c1ccc2c(c1)OC(C)(C)[C@@H]1CC=C(C)C[C@@H]21 [JWH133]", "< 4"],
  ["CCCCCCC(C)(C)c1cc(OC)c(C2=C[C@H]3CC[C@]2(CO)C3(C)C)c(OC)c1 [HU910]", "< 4"]
]}

Field: next molecule
(Q) Provide the documented pEC50 ± SEM pERK hCB1R with hCB1R (Homo sapiens, UniProt P21554) as the system for CN1CCCC[C@@H]1Cn1cc(C(=O)c2cc([N+](=O)[O-])ccc2I)c2ccccc21 [(R)-AM1241]
(A) 5.66 ± 0.19

###

experimental.system: hCB2R (Homo sapiens)
Sequence (P34972 whole entry): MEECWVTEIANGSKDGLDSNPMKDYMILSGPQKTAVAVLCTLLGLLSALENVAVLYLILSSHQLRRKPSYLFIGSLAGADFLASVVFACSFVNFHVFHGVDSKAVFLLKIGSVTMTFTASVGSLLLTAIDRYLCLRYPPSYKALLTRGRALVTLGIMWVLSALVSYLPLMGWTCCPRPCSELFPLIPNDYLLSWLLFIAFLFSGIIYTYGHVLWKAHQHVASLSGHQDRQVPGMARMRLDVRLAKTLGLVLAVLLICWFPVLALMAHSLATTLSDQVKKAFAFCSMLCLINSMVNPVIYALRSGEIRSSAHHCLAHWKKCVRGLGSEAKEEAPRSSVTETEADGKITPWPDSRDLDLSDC
Parameters: expressed in transfected cells; host or cells: Flp-In-293 (Invitrogen #R750-07), pcDNA5/FRT
condition.parameters: hCB2R
Returns one of Fulfilled or Not fulfilled; Fulfilled when pERK-GTPγS ΔΔlogR is >= 0.07.

Examples from the recorded data:
{"columns": ["compound", "answer.label"],
 "data": [
  ["CN1CCCC[C@H]1Cn1cc(C(=O)c2cc([N+](=O)[O-])ccc2I)c2ccccc21 [(S)-AM1241]", "Not fulfilled"],
  ["CN1CCCCC1Cn1cc(C(=O)c2cc([N+](=O)[O-])ccc2I)c2ccccc21 (racemic) [(rac)-AM1241]", "Fulfilled"],
  ["CCCCC/C=C\\C/C=C\\C/C=C\\C/C=C\\CCCC(=O)NCCO [Anandamide, N-arachidonoylethanolamine]", "Fulfilled"]
]}

(Q) Textbook exercise: given the entry `CCCCC/C=C\C/C=C\C/C=C\C/C=C\CCCC(=O)OC(CO)CO` , state whether its pERK-GTPγS ΔΔlogR is greater than or equal to 0.07.
(A) Fulfilled

(Q) Textbook exercise: given the entry `CCCCCCC(C)(C)c1cc(OC)c([C@@H]2C=C(CO)[C@@H]3C[C@H]2C3(C)C)c(OC)c1` , state whether its pERK-GTPγS ΔΔlogR is greater than or equal to 0.07.
(A) Not fulfilled

(Q) Textbook exercise: given the entry `CCCCCCC(C)(C)c1cc(OC)c(C2=C[C@H]3CC[C@]2(CO)C3(C)C)c(OC)c1` , state whether its pERK-GTPγS ΔΔlogR is greater than or equal to 0.07.
(A) Not fulfilled
